# pIC50 per entry
# target_under_test: His-tagged recombinant human Gal-3 (hGal-3) (Homo sapiens (Human), UniProt P17931)
# Sequence (P17931 whole entry): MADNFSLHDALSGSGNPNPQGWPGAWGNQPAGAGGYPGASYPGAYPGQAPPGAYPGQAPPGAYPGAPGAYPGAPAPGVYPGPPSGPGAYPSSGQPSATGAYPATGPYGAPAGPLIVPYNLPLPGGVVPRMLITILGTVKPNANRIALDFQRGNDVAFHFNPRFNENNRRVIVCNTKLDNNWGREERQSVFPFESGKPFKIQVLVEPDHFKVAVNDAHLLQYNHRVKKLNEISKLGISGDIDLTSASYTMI
# measurement_notes: Gal-3 HTRF assay (His-tagged hGal-3 binding to B-ASF);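 further: compounds preincubated 30 min with hGal-3, then 1 h with B-ASF, detection via terbium anti-His antibody and streptavidin d2. Control with B-ASF counts as full signal, omitting B-ASF as background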
# test_conditions: read-out: hGal IC50
pIC50 here: minus log base 10 of the concentration, concentration in moles per litre.

Past entries and their recorded results:
> print(dat)
                                entry.smiles                         target.under.test  property.measured  readout.value
 1  Cc1nc([C@@H]2O[C@H](CO)[C@H](O)[C@H](n3cc(-c4ccc(Cl)c(F)c4F)nn3)[C@H]2O)n(-c2cc(Cl)ccc2Br)n1  His-tagged recombinant human Gal-3 (hGal-3) (Homo sapiens (Human), UniProt P17931)              pIC50           8.00
 2  Cc1nc([C@@H]2O[C@H](CO)[C@H](O)[C@H](n3cc(-c4cc(F)c(Cl)c(Cl)c4)nn3)[C@H]2O)n(-c2cc(Cl)ccc2Cl)n1  His-tagged recombinant human Gal-3 (hGal-3) (Homo sapiens (Human), UniProt P17931)              pIC50           7.32
 3  Cc1nc([C@@H]2O[C@H](CO)[C@H](O)[C@H](n3cc(-c4ccc(Br)c(F)c4)nn3)[C@H]2O)n(-c2cc(Cl)ccc2C(F)F)n1  His-tagged recombinant human Gal-3 (hGal-3) (Homo sapiens (Human), UniProt P17931)              pIC50           7.31
 4  Cc1nc([C@@H]2O[C@H](CO)[C@H](O)[C@H](n3cc(-c4cc(F)c(Cl)c(Cl)c4)nn3)[C@H]2O)n(-c2ccc3nc(C)sc3c2)n1  His-tagged recombinant human Gal-3 (hGal-3) (Homo sapiens (Human), UniProt P17931)              pIC50           7.35
 5  Cc1nc([C@@H]2O[C@H](CO)[C@H](O)[C@H](n3cc(-c4ccc(Br)c(F)c4)nn3)[C@H]2O)n(-c2cc3sc(C)nc3cc2C(F)(F)F)n1  His-tagged recombinant human Gal-3 (hGal-3) (Homo sapiens (Human), UniProt P17931)              pIC50           7.66
 6  Cc1nc([C@@H]2O[C@H](CO)[C@H](O)[C@H](n3cc(-c4ccc(F)c(Cl)c4)nn3)[C@H]2O)n(-c2cc(Cl)ccc2C(F)(F)F)n1  His-tagged recombinant human Gal-3 (hGal-3) (Homo sapiens (Human), UniProt P17931)              pIC50           7.28
 7  Cc1nc([C@@H]2O[C@H](CO)[C@H](O)[C@H](n3cc(-c4ncc(Cl)cc4F)nn3)[C@H]2O)n(-c2cc(Cl)ccc2C(F)(F)F)n1  His-tagged recombinant human Gal-3 (hGal-3) (Homo sapiens (Human), UniProt P17931)              pIC50           6.80
 8  Cc1nc([C@@H]2O[C@H](CO)[C@H](O)[C@H](n3cc(-c4cc(F)c(Cl)c(F)c4)nn3)[C@H]2O)n(-c2cc(Cl)c(F)cc2Cl)n1  His-tagged recombinant human Gal-3 (hGal-3) (Homo sapiens (Human), UniProt P17931)              pIC50           7.48
 9  Cc1nc([C@@H]2O[C@H](CO)[C@H](O)[C@H](n3cc(-c4cc(F)c(Cl)c(F)c4)nn3)[C@H]2O)n(-c2cc(Cl)cc3cccnc23)n1  His-tagged recombinant human Gal-3 (hGal-3) (Homo sapiens (Human), UniProt P17931)              pIC50           7.77
10  Cc1nc([C@@H]2O[C@H](CO)[C@H](O)[C@H](n3cc(-c4cc(F)c(Cl)c(F)c4)nn3)[C@H]2O)n(-c2cc(Cl)c(Cl)cc2Cl)n1  His-tagged recombinant human Gal-3 (hGal-3) (Homo sapiens (Human), UniProt P17931)              pIC50           7.24

Form: molecule = Cc1nc([C@@H]2O[C@H](CO)[C@H](O)[C@H](n3cc(-c4cc(F)c(Cl)c(F)c4)nn3)[C@H]2O)n(-c2cc(Cl)ccc2C(F)F)n1 ; pIC50 = 7.44

// recorded pIC50 for Cc1nc([C@@H]2O[C@H](CO)[C@H](O)[C@H](n3cc(-c4cc(F)c(Cl)c(F)c4)nn3)[C@H]2O)n(-c2cc(Cl)ccc2Br)n1 : 7.66
